- Organism: Homo sapiens
- Protocol Description: Selectivity ratio of Ki for human recombinant kappa opioid receptor to Ki for human recombinant mu opioid receptor
Observed Property: Ratio Ki
Answer field: number only, no words.

# annotated cases, reported Ratio Ki shown
{"columns": ["Compound", "Ratio Ki"],
 "data": [
  ["CN1CC[C@@]2(CCCCCc3ccccc3)c3cc(O)ccc3O[C@H]2C1 (relative stereo)", 3],
  ["CCCC[C@@]12CCN(C)C[C@@H]1Oc1ccc(O)cc12 (relative stereo)", 20],
  ["Oc1ccc2c(c1)[C@]1(CCc3ccccc3)CCN(CCc3ccccc3C(F)(F)F)C[C@@H]1O2 (relative stereo)", 11]
]}

Next, consider the following compound.
Prompt line: Query (compound): CN1CC[C@@]2(CCc3ccc(F)cc3)c3cc(O)ccc3O[C@H]2C1 (relative stereo) ; field requested: Ratio Ki
Response line: 17

====

- Study Target: Mu-type opioid receptor (Homo sapiens)
- Sequence (P35372 whole entry): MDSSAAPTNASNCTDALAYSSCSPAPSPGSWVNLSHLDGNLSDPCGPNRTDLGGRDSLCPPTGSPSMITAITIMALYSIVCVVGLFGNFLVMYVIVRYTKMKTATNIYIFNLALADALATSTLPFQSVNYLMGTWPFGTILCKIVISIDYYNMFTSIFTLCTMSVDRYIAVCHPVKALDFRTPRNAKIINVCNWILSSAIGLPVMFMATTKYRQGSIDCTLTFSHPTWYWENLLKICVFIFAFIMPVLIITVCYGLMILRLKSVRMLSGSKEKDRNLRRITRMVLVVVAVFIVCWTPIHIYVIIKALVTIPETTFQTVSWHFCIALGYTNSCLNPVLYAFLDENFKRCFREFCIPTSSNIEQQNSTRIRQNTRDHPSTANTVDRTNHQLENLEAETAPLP
- Protocol Description: biochemical
- Assay type: cell-based, CHO
Observed Property: Ki (nM)
Value expressed in nM; do not type the unit.

# annotated cases, reported Ki shown
{"columns": ["Molecule", "Ki [nM]"],
 "data": [
  ["CN1CC[C@@]2(CCc3ccccc3)c3cc(O)ccc3O[C@H]2C1 (racemic)", 66],
  ["CN1CC[C@@]2(Cc3ccccc3)c3cc(O)ccc3O[C@H]2C1 (racemic)", 60]
]}

Prompt line: Query (molecule): CC[C@@]12CCN(C)C[C@@H]1Oc1ccc(O)cc12 (racemic) ; field requested: Ki
Response line: 19

====

- Organism: Homo sapiens
- Protocol Description: Selectivity ratio of Ki for human recombinant kappa opioid receptor to Ki for human recombinant delta opioid receptor
Observed Property: Ratio Ki
Answer field: number only, no words.

# annotated cases, reported Ratio Ki shown
{"columns": ["Molecule", "Observed Property", "Assay Value"],
 "data": [
  ["CCCC[C@@]12CCN(C)C[C@@H]1Oc1ccc(O)cc12 (relative stereo)", "Ratio Ki", 9],
  ["CN1CC[C@@]2(CCc3ccc(F)cc3)c3cc(O)ccc3O[C@H]2C1 (relative stereo)", "Ratio Ki", 22],
  ["CN1CC[C@@]2(CCCCCc3ccccc3)c3cc(O)ccc3O[C@H]2C1 (relative stereo)", "Ratio Ki", 0.95]
]}

Prompt line: Query (molecule): Oc1ccc2c(c1)[C@]1(CCc3ccccc3)CCN(CCc3ccccc3C(F)(F)F)C[C@@H]1O2 (relative stereo) ; field requested: Ratio Ki
Response line: 14
